# measured on: T1, c-Kit expressed on the cell surface of M-07e cells (human, UniProt P10721 26-976)
# T1 construct: whole, on cells; also called cell surface expressed c-Kit; CD117
# assay details: flow cytometry on M-07e cells
experimental readout: Measuring Fluorescent Intensity (MFI)

Prompt: Can you look up the measured Measuring Fluorescent Intensity (MFI) of hSR1-4 (antibody, human IgG1, kappa, V domains shown, also called humanized SR1-4; hSR1-H3b / hSR1-L2) VH: QVQLVQSGAEVKKPGASVKMSCKASGYTFTSYNMHWVRQAPGQGLEWIGVIYSGNGDTSYAQKFQGRATLTADKSTSTAYMELSSLRSEDTAVYYCARERDTRFGNWGQGTLVTVSS VL: DIQLTQSPSSLSASVGDRATITCRASESVDIYGNSFMHWYQQKPGKAPKLLIYLASNLESGVPSRFSGSGSGTDFTLTISSVQPEDFATYYCQQNNEDPYTFGQGTKLEIKR for me?
Completion: 4960 MFI

Prompt: Can you look up the measured Measuring Fluorescent Intensity (MFI) of hSR1-6 (antibody, human IgG1, kappa, V domains shown, also called humanized SR1-6; hSR1-H3 / hSR1-L2r) VH: QVQLVQSGAEVKKPGASVKMSCKASGYTFTSYNMHWVRQAPGQGLEWIGVIYSGNGDTSYAQKFQGRATLTADTSTSTAYMELSSLRSEDTAVYYCARERDTRFGNWGQGTLVTVSS VL: DIQLTQSPSSLSASVGDRATITCRASESVDIYGNSFMHWYQQKPGKAPKLLIYLASNLESGVPSRFSGSGSRTDFTLTISSVQPEDFATYYCQQNNEDPYTFGQGTKLEIKR for me?
Completion: 3590 MFI

Prompt: Can you look up the measured Measuring Fluorescent Intensity (MFI) of hSR1-1 (antibody, human IgG1, kappa, V domains shown, Humanized anti-c-Kit antibody; also called humanized SR1-1; hSR1-H2 / hSR1-L2) VH: QVQLVQSGAEVKKPGASVKVSCKASGYTFTSYNMHWVRQAPGQGLEWMGVIYSGNGDTSYAQKFQGRVTMTADTSTSTAYMELSSLRSEDTAVYYCARERDTRFGNWGQGTLVTVSS VL: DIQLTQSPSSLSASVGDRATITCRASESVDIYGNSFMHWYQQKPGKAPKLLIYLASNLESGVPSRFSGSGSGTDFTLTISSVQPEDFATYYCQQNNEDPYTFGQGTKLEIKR for me?
Completion: 5020 MFI

Prompt: Can you look up the measured Measuring Fluorescent Intensity (MFI) of hSR1-5 (antibody, human IgG1, kappa, V domains shown, also called humanized SR1-5; hSR1-H2 / hSR1-L2r) VH: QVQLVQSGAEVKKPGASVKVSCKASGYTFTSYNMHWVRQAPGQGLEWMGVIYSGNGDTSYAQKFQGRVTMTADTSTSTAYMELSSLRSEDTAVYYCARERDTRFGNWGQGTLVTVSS VL: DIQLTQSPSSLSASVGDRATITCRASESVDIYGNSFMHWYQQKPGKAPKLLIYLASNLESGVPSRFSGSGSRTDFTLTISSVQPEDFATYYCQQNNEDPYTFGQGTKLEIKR for me?
Completion: 4030 MFI

Prompt: Can you look up the measured Measuring Fluorescent Intensity (MFI) of hSR1-3 (antibody, human IgG1, kappa, V domains shown, also called humanized SR1-3; hSR1-H2b / hSR1-L2) VH: QVQLVQSGAEVKKPGASVKVSCKASGYTFTSYNMHWVRQAPGQGLEWMGVIYSGNGDTSYAQKFQGRVTMTADKSTSTAYMELSSLRSEDTAVYYCARERDTRFGNWGQGTLVTVSS VL: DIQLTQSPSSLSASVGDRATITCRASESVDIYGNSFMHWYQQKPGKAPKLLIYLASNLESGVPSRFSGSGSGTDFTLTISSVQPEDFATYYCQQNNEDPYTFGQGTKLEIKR for me?
Completion: 5190 MFI

Prompt: Can you look up the measured Measuring Fluorescent Intensity (MFI) of hSR1-2 (antibody, human IgG1, kappa, V domains shown, also called humanized SR1-2; hSR1-H3 / hSR1-L2) VH: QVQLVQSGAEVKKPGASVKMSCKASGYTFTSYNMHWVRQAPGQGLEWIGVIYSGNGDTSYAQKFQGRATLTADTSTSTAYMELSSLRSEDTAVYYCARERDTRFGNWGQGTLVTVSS VL: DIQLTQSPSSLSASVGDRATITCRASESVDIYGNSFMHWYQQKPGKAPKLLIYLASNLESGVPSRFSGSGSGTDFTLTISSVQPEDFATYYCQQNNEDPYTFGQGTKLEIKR for me?
Completion: 5200 MFI
